system tested: bovine XOD (Bos taurus)
Construct: Bovine milk XOD was procured from Calbiochem (La Jolla, CA, USA); purchased Calbiochem (La Jolla, CA, USA); host or cells: bovine milk
procedure details: IC50 determination, XOD-catalyzed hydroxylation (uric acid at 293 nm, 6TUA at 350 nm)
Type: biochemical
reported conditions: read-out: IC50, XOD inhibition, substrate 6MP (6MP to 6TUA); 10 μM 6MP; 2.8 U/ml bovine XOD; pH 7.4; 60 min reaction; ± SEM
value type: pIC50
// pIC50 here means minus log10 of the molar concentration (mol/L)

Record `Nc1ncnc2[nH]ncc12` , field pIC50: 4.89

###

system tested: bovine XOD (Bos taurus, UniProt P80457)
Construct: Bovine milk XOD was procured from Calbiochem (La Jolla, CA, USA); purchased Calbiochem (La Jolla, CA, USA); host or cells: bovine milk
Sequence (P80457 whole entry): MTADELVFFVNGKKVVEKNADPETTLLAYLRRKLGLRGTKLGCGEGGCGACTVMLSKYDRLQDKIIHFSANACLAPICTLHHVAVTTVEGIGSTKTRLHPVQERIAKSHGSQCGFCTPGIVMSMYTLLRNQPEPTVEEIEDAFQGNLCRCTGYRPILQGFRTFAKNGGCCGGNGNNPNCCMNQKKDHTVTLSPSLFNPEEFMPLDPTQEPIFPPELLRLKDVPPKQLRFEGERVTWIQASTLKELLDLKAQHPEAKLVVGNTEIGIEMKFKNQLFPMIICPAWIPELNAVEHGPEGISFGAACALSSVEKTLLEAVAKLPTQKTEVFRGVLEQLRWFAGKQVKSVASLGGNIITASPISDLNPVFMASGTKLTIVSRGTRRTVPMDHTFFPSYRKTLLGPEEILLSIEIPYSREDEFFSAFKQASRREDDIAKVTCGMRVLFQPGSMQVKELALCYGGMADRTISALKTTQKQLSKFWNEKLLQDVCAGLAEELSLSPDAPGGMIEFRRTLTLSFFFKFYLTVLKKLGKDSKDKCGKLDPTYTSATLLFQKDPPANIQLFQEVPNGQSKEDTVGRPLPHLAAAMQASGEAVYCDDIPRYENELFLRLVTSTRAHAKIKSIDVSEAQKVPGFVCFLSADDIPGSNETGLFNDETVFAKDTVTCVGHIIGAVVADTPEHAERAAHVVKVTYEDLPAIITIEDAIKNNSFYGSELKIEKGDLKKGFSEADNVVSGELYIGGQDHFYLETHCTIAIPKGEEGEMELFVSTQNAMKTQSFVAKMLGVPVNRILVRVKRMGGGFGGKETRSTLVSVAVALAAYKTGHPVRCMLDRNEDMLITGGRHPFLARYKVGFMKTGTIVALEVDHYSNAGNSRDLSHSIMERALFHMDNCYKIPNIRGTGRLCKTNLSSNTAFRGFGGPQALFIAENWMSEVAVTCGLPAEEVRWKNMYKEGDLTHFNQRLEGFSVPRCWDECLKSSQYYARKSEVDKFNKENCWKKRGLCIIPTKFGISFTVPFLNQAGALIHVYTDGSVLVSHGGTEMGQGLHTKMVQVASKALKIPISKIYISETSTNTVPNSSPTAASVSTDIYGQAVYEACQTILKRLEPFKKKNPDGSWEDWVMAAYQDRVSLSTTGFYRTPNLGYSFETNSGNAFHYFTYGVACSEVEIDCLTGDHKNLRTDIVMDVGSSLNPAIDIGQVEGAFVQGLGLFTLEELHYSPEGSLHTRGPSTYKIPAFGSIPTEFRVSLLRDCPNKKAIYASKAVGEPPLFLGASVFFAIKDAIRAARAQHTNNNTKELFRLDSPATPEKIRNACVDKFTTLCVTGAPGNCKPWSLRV
procedure details: IC50 determination, XOD-catalyzed hydroxylation (uric acid at 293 nm, 6TUA at 350 nm)
Format: biochemical
reported conditions: IC50, XOD inhibition, substrate 6MP (6MP to 6TUA), 10 μM 6MP; 2.8 U/ml bovine XOD; pH 7.4; 60 min reaction; ± SEM
Catalogue of pIC50 readings, one per entry.
Just so you know, pIC50 here is -log10 of the concentration in molar units; reply with that number alone.

Given the molecule Nc1nc2nc[nH]c2c(=S)[nH]1 [APT, 2-amino-6-purinethiol] and test system bovine XOD (Bos taurus, UniProt P80457), the measured pIC50 is 5.59

Now consider a different molecule.
The recorded pIC50 with bovine XOD (Bos taurus, UniProt P80457) for Nc1nc2[nH]c(S)nc2c(=O)[nH]1 [AHMP, 2-amino-6-hydroxy-8-mercaptopurine] was 6.27

###

system tested: bovine XOD (Bos taurus, UniProt P80457)
Construct: Bovine milk XOD was procured from Calbiochem (La Jolla, CA, USA); purchased Calbiochem (La Jolla, CA, USA); host or cells: bovine milk
procedure details: Steady-state kinetics of XOD (Michaelis Menten and Lineweaver Burk plots)
Assay type: biochemical
reported conditions: substrate xanthine; read-out: Ki (competitive inhibition constant; Ki^1 for APT, Ki^2 for AHMP)
value type: pKi
Reminder that pKi is minus the log10 of a molar concentration.

Entry Nc1nc2nc[nH]c2c(=S)[nH]1 [APT, 2-amino-6-purinethiol] : pKi on bovine XOD (Bos taurus, UniProt P80457) = 5.18

Continuing:
Measured on bovine XOD (Bos taurus, UniProt P80457), Nc1nc2[nH]c(S)nc2c(=O)[nH]1 [AHMP, 2-amino-6-hydroxy-8-mercaptopurine] has a documented pKi of 5.24

###

system tested: bovine XOD (Bos taurus)
Construct: Bovine milk XOD was procured from Calbiochem (La Jolla, CA, USA); purchased Calbiochem (La Jolla, CA, USA); host or cells: bovine milk
procedure details: Steady-state kinetics of XOD (Michaelis Menten and Lineweaver Burk plots)
Assay type: biochemical
reported conditions: substrate 6MP; read-out: Ki (competitive inhibition constant; Ki^1 for APT, Ki^2 for AHMP)
Consider the following compounds and their measured pKi readings.
Note on units: pKi is unitless, being -log10 of a concentration expressed in mol/L.

pKi measured on `Nc1nc2nc[nH]c2c(=S)[nH]1` = 5.89

# input for lookup
// pKi value for Nc1nc2[nH]c(S)nc2c(=O)[nH]1 [AHMP, 2-amino-6-hydroxy-8-mercaptopurine] : 6.02
